Source: paper PMC11054528

test: Fast gradient RP-HPLC on C18 column (CHI lipophilicity); type: physicochemical; conditions: C18 column, pH 2.6
MEASURED_PROPERTY: CHIC18 pH = 2.6

>>> result("O=C1c2ccccc2S(=O)(=O)N1CCCCCCN1CCN(c2ccc(Cl)c(Cl)c2)CC1")
65.39
>>> result("COc1ccccc1N1CCN(Cc2ccc(CN3C(=O)c4ccccc4S3(=O)=O)cc2)CC1")
55.76
>>> result("O=C1c2ccccc2S(=O)(=O)N1CCCCN1CCN(c2ccc(Cl)cc2)CC1")
56.31
>>> result("O=C1c2ccccc2S(=O)(=O)N1CCCCCN1CCN(c2cccc(Cl)c2Cl)CC1")
72.79
>>> result("COc1cccc(N2CCN(CCCCCCN3C(=O)c4ccccc4S3(=O)=O)CC2)c1")
55.41
>>> result("O=C1c2ccccc2S(=O)(=O)N1CCCCN1CCN(c2cccc(Cl)c2Cl)CC1")
49.19
>>> result("O=C1c2ccccc2S(=O)(=O)N1CCCCCN1CCN(c2ccccc2)CC1")
52.20
>>> result("O=C1c2ccccc2S(=O)(=O)N1CCCCCCN1CCN(c2ccccn2)CC1")
43.25
